assayText: label from the status in PepcDB records
propertyMeasured: protein production

polymerSequence: MVVSIITPLYKVEDFIARCADSLFRQSYTEIEYIFVDDCSSDRSVEVLLQVAERYPQLQQQIRILHHESNRGVAAARETGLAAATGEYVYWVDADDWIEPDAIEKMVVRSEQGQKDIIACGWYLCFRQNERRMPMPCYADAETALRGMLSGTMRWNLWLYMIKRDLYLMNDIHFMEGENVGEDMLVLIKLFSHAKSIGFVKDAFYHYVKQNENSLTRLSPEQQMKRQMRNLQAATDYLVTHFIGKYEKEINFFKLNAKMPLLISNDKNSYRTWTACFPEANKYIMANKRQTLRMRLVQLMAAKRQFWLVELYYQLVFKFVYGILYK
propertyMeasured: protein production
result: failed
//
polymerSequence: MVQHHNLYELSPMDTGWTICVMVLRINKKFLNPNAFELRFVLDDEWDTQIEATIRPRFSPFYFDRIEKNQWKTISTFLVRPNCEPIRTTPHEFRILFMDHTIITSSTS
propertyMeasured: protein production
result: failed
//
polymerSequence: MEKILDNIDKSMNIIISLFTIYNLIRGFWLNKNKKQLEKQREDLQKKLHQQNISNNNNISNSFNTTIHNETNIKNEIIDINQDLKNTLKSRNTSRNIAYIFTIFLFVLSFILYVIHYFKEQFKGYTIADFINSFIPSFEKLTDILTISYKSAIIVLLIINLIIAVLVILISMLKLKLKWRVAVSSLLYGILNYYVLISASSIDSKDIHYSIQEPKLSFIISFLYLMVGFITAFFSNYILYSYLFNSEFEDELFNQTIKRFFIWLALTVLFAFLSFINYHNGLQITLNFIKNLLNLI
propertyMeasured: protein production
result: failed

Data provenance: a protein production outcome set (Wang et al. 2014)
